# system.tested: cDNA-expressed human hepatic CYP3A4 (Homo sapiens (Human), UniProt P08684)
# Sequence (P08684 whole entry): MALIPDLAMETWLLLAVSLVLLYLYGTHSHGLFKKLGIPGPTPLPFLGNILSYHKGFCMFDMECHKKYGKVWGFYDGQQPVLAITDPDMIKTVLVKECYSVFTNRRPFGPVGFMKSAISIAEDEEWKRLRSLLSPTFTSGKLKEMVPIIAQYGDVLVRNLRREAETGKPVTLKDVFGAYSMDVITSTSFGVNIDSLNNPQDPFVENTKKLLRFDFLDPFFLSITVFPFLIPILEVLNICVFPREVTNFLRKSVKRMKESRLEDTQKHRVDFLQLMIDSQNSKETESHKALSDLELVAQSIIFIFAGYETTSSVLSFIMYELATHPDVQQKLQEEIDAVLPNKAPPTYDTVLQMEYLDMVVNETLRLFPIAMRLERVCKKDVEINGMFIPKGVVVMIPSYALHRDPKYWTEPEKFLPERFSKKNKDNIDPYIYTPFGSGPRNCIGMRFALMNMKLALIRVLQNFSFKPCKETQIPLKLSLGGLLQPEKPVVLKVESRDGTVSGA
# assay.name: Measurement of CYP (IC50 of P450 CYP3A4), BFC substrate
# Type: in vitro ADME
# experimental.setup: 20 minutes
pIC50: −log10 of the molar value.
observation.type: pIC50

>  <compound.smiles>
C=CCN1CC(=O)N2[C@@H](Cc3ccc(O)cc3)C(=O)N(Cc3cccc4c(-c5ccc(NC(=S)NC(=O)OCC)nc5)cn(C)c34)C[C@@H]2N1C(=O)NCc1ccccc1

>  <readout.value>
< 4.60

$$$$
>  <compound.smiles>
C=CCN1CC(=O)N2[C@@H](Cc3ccc(O)cc3)C(=O)N(Cc3cccc4c(-c5ccc(NC(=O)c6ccc(N(C)C)cc6)cc5)cn(C)c34)C[C@@H]2N1C(=O)NCc1ccccc1

>  <readout.value>
< 4.60

$$$$

Okay, next one:
Lab note: `C=CCN1CC(=O)N2[C@@H](Cc3ccc(O)cc3)C(=O)N(Cc3cccc4c(C(=O)N5CCN(CCCN(C)C)CC5)cn(C)c34)C[C@@H]2N1C(=O)NCc1ccccc1` gave pIC50 of < 4.60

---

# System: MV-4-11 (human, Acute Myeloid Leukemia cell line) cells
# assay.name: Cell growth inhibition assay, GI50 of MV-4-11
# Assay type: cell-based
# experimental.setup: Homo sapiens, MV4-11, 72 h, MV-4-11 cells
observation.type: GI50 (nM)

>  <compound>
C=CCN1CC(=O)N2[C@@H](Cc3ccc(O)cc3)C(=O)N(Cc3cccc4c(C(=O)N5CCN(C(C)(C)C)CC5)cn(C)c34)C[C@@H]2N1C(=O)NCc1ccccc1

>  <system.tested>
MV-4-11 (human, Acute Myeloid Leukemia cell line) cells

>  <observation.type>
GI50

>  <readout.value>
8.9

$$$$

P = C=CCN1CC(=O)N2[C@@H](Cc3ccc(O)cc3)C(=O)N(Cc3cccc4c(C(=O)N5CCN(Cc6ccc(C#N)cc6)CC5)cn(C)c34)C[C@@H]2N1C(=O)NCc1ccccc1
Q = C=CCN1CC(=O)N2C(Cc3ccc(O)cc3)C(=O)N(Cc3cccc4c(C(=O)Nc5ccc(NCCN6CCCCC6)nc5)cn(C)c34)CC2N1C(=O)NCc1ccccc1 (stereo not drawn)
Q) For the two items P and Q , which reports the higher GI50 value? // return label of chosen record
A) P

---

# system.tested: cDNA-expressed human hepatic CYP3A4 (Homo sapiens (Human), UniProt P08684)
# assay.name: Measurement of CYP (IC50 of P450 CYP3A4), BFC substrate
# Assay type: in vitro ADME
# experimental.setup: 20 minutes
pIC50: −log10 of the molar value.
observation.type: pIC50

a = C=CCN1CC(=O)N2[C@@H](Cc3ccc(O)cc3)C(=O)N(Cc3cccc4c(C(=O)NCCN(C)C)cn(C)c34)C[C@@H]2N1C(=O)NCc1ccccc1
b = C=CCN1CC(=O)N2[C@@H](Cc3ccc(O)cc3)C(=O)N(Cc3cccc4c(C(=O)N(C)CCn5ccnc5C)cn(C)c34)C[C@@H]2N1C(=O)NCc1ccccc1
Q) For the two items a and b , which reports the higher pIC50 value? // return label of chosen record
A) b
(b: 5.61, a: 5.10)

---

The molecules listed here are annotated with their pIC50.
# system.tested: cDNA-expressed human hepatic CYP3A4 (Homo sapiens (Human), UniProt P08684)
# assay.name: Measurement of CYP (IC50 of P450 CYP3A4), BFC substrate
# Format: in vitro ADME
# experimental.setup: 20 minutes
pIC50: −log10 of the molar value.

See these solved cases before continuing.
>  <molecule>
C=CCN1CC(=O)N2C(Cc3ccc(O)cc3)C(=O)N(Cc3cccc4c(C(=O)Nc5ccc(N6CCN(C(C)=O)CC6)nc5)cn(C)c34)CC2N1C(=O)NCc1ccccc1 (stereo not shown) [Compound G-53]

>  <pIC50>
< 4.60

$$$$
>  <molecule>
C=CCN1CC(=O)N2C(CN(Cc3cccc4c(C(=O)Nc5ccc6c(c5)OCCO6)cn(C)c34)C(=O)[C@@H]2Cc2ccc(O)cc2)N1C(=O)NCc1ccccc1 (stereo partly shown) [Compound G-70]

>  <pIC50>
5.58

$$$$
>  <molecule>
C=CCN1CC(=O)N2[C@@H](Cc3ccc(O)cc3)C(=O)N(Cc3cccc4c(-c5ccc(NC(=O)c6ccc(N(CC)CC)cc6)cc5)cn(C)c34)C[C@@H]2N1C(=O)NCc1ccccc1 [Compound D-57]

>  <pIC50>
< 4.60

$$$$

Okay, next one:
Lab note: C=CCN1CC(=O)N2[C@@H](Cc3ccc(O)cc3)C(=O)N(Cc3cccc4c(-c5ccc(NC(=O)Nc6ccccc6)nc5)cn(C)c34)C[C@@H]2N1C(=O)NCc1ccccc1 [Compound C] gave pIC50 of < 4.60
